# System: OVCAR-4 ovarian
# Protocol text: NCI-60 one-dose screen, 48 h
# Condition set: 10 µM unless noted
# Procedure: Growth inhibition of the OVCAR-4 human tumor cell line is measured as a screen for anti-cancer activity. Cells are grown in 96 well plates and exposed to the test compound for 48 hours. Compounds are tested at a single concentration, which is 10^-5 M for most compounds. The reported endpoint is percent growth (GI% or GIPRCNT), where numbers from 0 - 100% represent growth inhibition, and numbers from -100% - 0 represent cell death. For example, a value of 40 represents 60% growth inhibition. […]
About 83,000 compounds went through this panel and 20% of them were active in at least one assay; those are over-represented in the sample as a whole. Activity calls are given as the source filed them. Rule for the calls: active = growth percent below 10; inactive = the rest.
Choose one outcome from this list and give only that: active, inactive

Record lookup: outcome of this test for C=C1C(=O)O[C@H]2[C@H]1CC/C(COC(=O)N[C@H]1C[C@H](O[C@H]3C[C@](O)(C(=O)CO)Cc4c(O)c5c(c(O)c43)C(=O)c3c(OC)cccc3C5=O)O[C@@H](C)[C@H]1O)=C\CC[C@@]1(C)O[C@@H]21 ?
inactive

Please indicate how the test categorized CCCCCCCCn1ccc2cc(NC(=O)CN3CCN(c4nc(C)cc(Cl)n4)CC3)ccc21 .
inactive

Could you kindly confirm the outcome this assay logged for COc1cc2c(c(OC)c1OC)CCC(c1cccc(C(=O)Nc3cccc(Br)c3)c1)O2 (stereo not drawn) ?
inactive

Kindly provide the recorded test outcome for the following compound: N#Cc1c(NC(=O)c2ccccc2)sc2c1CCC(=O)C2
active

State the result this test recorded for CC(=O)N1N=C(c2ccc(Nc3nc(Nc4ccc(Cl)cc4)nc(Nc4ccc(Cl)cc4)n3)cc2)CC1c1ccco1 (stereo not drawn) .
inactive

Name the outcome recorded for N#C/C(=C\c1ccc(-c2ccc(Cl)cc2)o1)C(=O)Nc1ncc(Cc2ccc(Cl)cc2)s1 in the assay.
active

Would you mind telling me which call this test gave O=C(Cn1cc(CN2CCCCCC2)nn1)Nc1ccc2c(ccn2Cc2ccccc2)c1 ?
inactive

What classification did COc1ccc(-c2nc3c(c(-c4ccccc4)nn3-c3ccccc3)c(-c3ccc(N4CCOCC4)cc3)c2C#N)cc1 end up with in this test?
inactive

Please indicate how the test categorized COC(=O)c1c2c(c(C)[n+]([O-])c1C)C(=O)C(NCc1ccc(Cl)cc1)=CC2=O .
inactive

Assay result, entry CCc1nc2c(=O)[nH]cnc2o1 — outcome?
inactive

Check the results log: what was the call for O=C(CCCCC1CCSS1)Nc1ncnc2n[nH]c(-c3ccc(Oc4ccccc4)cc3)c12 (stereo not drawn) ?
inactive

Called result for O=C(Nc1cc(Cl)ccc1O)c1ccc(Nc2ccnc(C(F)(F)F)c2)cc1
inactive

Outcome? C=CCn1c(SCC(=O)Nc2ccc(C(=O)/C=C/c3ccc(Cl)cc3)cc2)nnc1-c1cc(-c2ccc(S(N)(=O)=O)cc2)nc2ccccc12
inactive

Please state the recorded outcome for this compound: Cc1nn(-c2ccccc2)c(Oc2ccccn2)c1-c1nc2ccccc2s1
inactive

Test call for this compound, please: Cc1cc2c(O)c(-c3cccc(Cl)c3)c3sc(=O)oc3c2cc1C
inactive

Lab log entry: O=C(COc1ccc(-c2nc3ccccc3[nH]2)cc1)N=Nc1c(O)[nH]c2ccc(Cl)cc12 — outcome as called in the assay?
inactive

Called result for O=S(=O)(NCCNc1nccc(-c2c(-c3cccc(F)c3)nc3occn23)n1)c1ccc(Br)cc1
inactive

Identify the outcome logged in this assay for the compound shown: CCOC(=O)CSc1ncnc2c1c(-c1ccccc1)c(-c1ccccc1)n2-c1ccc(C)cc1
inactive
